# System: LPS Induced TNF-α in Human Blood
# protocol.summary: LPS induced TNF-α in human whole blood
# Type: cell-based
# recorded.conditions: LPS 0.5 ng/ml overnight, read-out: Human Whole Blood Assays (IC5050), TNFα LPS
# Experimental: To assess the effect of whole blood on the potency of compound I-1 and Comparison-1, the compounds were evaluated for their inhibitory potential on TLR dependent cytokine release in human blood. […] The serum was isolated after centrifugation and TNF-α and IL-6 were measured by ELISA. […] 100 μL of PBS was added to each well and centrifuged for 10 minutes at 1000 RPM. 25 μL of supernatant were taken, and TNF-α was measured on Luminex Flexmap 3d.
Exercise: for every item that follows, state its recorded IC50.
Answers are plain numbers, in µM.

compound: CCO[C@H]1CC[C@H](n2cc(NC(=O)c3csc(-c4cn[nH]c4)n3)c(-c3ncccn3)n2)CC1
system.tested: LPS Induced TNF-α in Human Blood
quantitative.result: 0.224

Next compound, please.
## Input # return recorded IC50 for entry CCO[C@H]1CC[C@H](n2cc(NC(=O)c3csc(-c4cn[nH]c4)n3)c(-c3nc(F)ccc3F)n2)CC1 [Comparison-1, reference compound]
## Output 1.4

----------
# protocol.summary: Plasma protein binding, equilibrium dialysis (RED), mouse
# Type: in vitro ADME
# recorded.conditions: drug 5 μM, low due to hydrolysis
Consider the following compounds; for each one, report its recovery at 5 μM.
Answers are plain numbers, in %.

compound: CCO[C@H]1CC[C@H](n2cc(NC(=O)c3csc(-c4cn[nH]c4)n3)c(-c3ncccn3)n2)CC1
recovery at 5 μM, %: 23.6

## Input Tell us which recovery at 5 μM value is on record for CCO[C@H]1CC[C@H](n2cc(NC(=O)c3csc(-c4cn[nH]c4)n3)c(-c3nc(F)ccc3F)n2)CC1 [Comparison-1, reference compound]
## Output 10

----------
Would you mind telling me the reported IC50 of each entry?
# Test system: TLR7-induced TNF-α production in human primary dendritic cells (DC)
# protocol.summary: Gardiquimod-induced TNF-α in human monocyte-derived dendritic cells (DC)
# Assay type: cell-based
# recorded.conditions: Dendritic cell, gardiquimod 4 μg/ml, read-out: Cell Assays IC50, TNFα (DC, Gard)
# Method: Human peripheral blood mononuclear cells (PBMC) (400 million) were allowed to adhere in a T-175 flask containing 15 ml RPMI media (10% FBS) for 2 hours at 37° C., 5% CO2 to capture the monocytes. […] The DCs were stimulated with gardiquimod (10 μL per well of 20× concentrated gardiquimod solution in RPMI media to give a final concentration of 4 μg/ml) at 37° C., 5% CO2 for an additional 18 hours. […] TNF-α was quantitated by ELISA, following the kit protocol.
Quick note: number first, unit second.

For every item below, please supply its IC50.
1. CCO[C@H]1CC[C@H](n2cc(NC(=O)c3csc(-c4cn[nH]c4)n3)c(-c3ncccn3)n2)CC1
2. CCO[C@H]1CC[C@H](n2cc(NC(=O)c3csc(-c4cn[nH]c4)n3)c(-c3nc(F)ccc3F)n2)CC1 [Comparison-1, reference compound]

## Output
1. 5 nM
2. 19 nM

----------
# protocol.summary: Plasma protein binding, equilibrium dialysis (RED), monkey
# Type: in vitro ADME
# recorded.conditions: drug 5 μM, value above 100% due to experimental error (footnote)
Assign recovery at 5 μM to each entry below.
Give bare numbers, in %.

molecule: CCO[C@H]1CC[C@H](n2cc(NC(=O)c3csc(-c4cn[nH]c4)n3)c(-c3ncccn3)n2)CC1
quantitative.result: 104

From here, focus on the item given below.
## Input Output recovery at 5 μM of CCO[C@H]1CC[C@H](n2cc(NC(=O)c3csc(-c4cn[nH]c4)n3)c(-c3nc(F)ccc3F)n2)CC1 [Comparison-1, reference compound]
## Output 71.6

Numbers sourced from patent US12384775B2.
